Experiment: Half life in male Sprague-Dawley rat at 2.5 mg/kg, ip measured after 5 to 1440 mins by LC-MS/MS analysis
Type: ADME, organism-based
Conditions: in vivo, time 5-1440 min

compoundStructureString: CCn1c2ccccc2c2cc(Nc3ccnc(Nc4ccc(C)c(OC)c4)n3)ccc21
half-life: 274 min

====

Experiment: Ratio of drug concentration in male mouse brain to plasma at 10 mg/kg, ip measured after 1 hrs by LC-MS/MS analysis
Format: ADME, organism-based
Conditions: brain and plasma, read-out: BPR
recordedMetric: Kp at 1 h

compoundStructureString: CCn1c2ccccc2c2cc(Nc3ccnc(Nc4ccc(C)c(OC)c4)n3)ccc21
reading: 0.2

Cited source: ChEMBL document CHEMBL6121007
